Each recorded value in this set is attributed to ChEMBL document CHEMBL4385608.

Assay: Half-life in CD-1 mouse at 10 mg/kg, po by LC-MS/MS analysis
Assay type: ADME, organism-based
Details: in vivo
property name: half-life (h)

- structure smiles: "O=C(O)CCCSc1nnc(-c2ccc(C3CC3)cc2Cl)o1"
  property name: "half-life"
  u: "h"
  measured result: 1.8

###

Experiment: Cmax in CD-1 mouse at 3 mg/kg, iv by LC-MS/MS analysis
Assay type: ADME, organism-based
Parameters: dose 3 mg/kg, route intravenous
Conditions: in vivo

- structure smiles: "O=C(O)CCCSc1nnc(-c2ccc(C3CC3)cc2Cl)o1"
  Cmax (ng/mL): 8140

###

Assay: Cmax in CD-1 mouse at 15 mg/kg, iv by LC-MS/MS analysis
Assay type: ADME, organism-based
Design: dose 15 mg/kg, route intravenous
Details: in vivo

- structure smiles: "O=C(O)CCSc1nnc(-c2ccc(Cl)cc2Cl)o1"
  Cmax [µg/mL]: 88.5
